# testDescription: Binding affinity to CGRP (unknown origin)
# Design: species or system Homo sapiens
quantity: pKi
Friendly reminder that pKi comes from taking -log10 of the concentration in mol/L.

>>> datavalue("O=C(CN1C(=O)C2(CCCC2)NC[C@@H]1c1ccccc1)Nc1ccc2c(c1)C[C@@]1(C2)C(=O)Nc2ncccc21")
10.17
>>> datavalue("O=C(CN1C(=O)C2(CCCC2)NC[C@@H]1c1cc(F)cc(F)c1)Nc1ccc2c(c1)C[C@@]1(C2)C(=O)Nc2ncccc21")
9.24
>>> datavalue("O=C(CN1C(=O)C2(CCCC2)NC[C@H]1c1cc(F)cc(F)c1)Nc1ccc2c(c1)C[C@@]1(C2)C(=O)Nc2ncccc21")
10.77

Next item in the queue.
Asked: May I ask what pKi has been recorded for NCCCC[C@H](NC(=O)[C@@H](Cc1cc(Br)c(O)c(Br)c1)NC(=O)N1CCC(N2Cc3ccccc3NC2=O)CC1)C(=O)N1CCN(c2ccncc2)CC1 ?
Given back: 11.00
